# assayed_target: primase (UL5/UL8/UL52) (Human herpesvirus 1, UniProt P10236)
# Sequence (P10189 whole entry): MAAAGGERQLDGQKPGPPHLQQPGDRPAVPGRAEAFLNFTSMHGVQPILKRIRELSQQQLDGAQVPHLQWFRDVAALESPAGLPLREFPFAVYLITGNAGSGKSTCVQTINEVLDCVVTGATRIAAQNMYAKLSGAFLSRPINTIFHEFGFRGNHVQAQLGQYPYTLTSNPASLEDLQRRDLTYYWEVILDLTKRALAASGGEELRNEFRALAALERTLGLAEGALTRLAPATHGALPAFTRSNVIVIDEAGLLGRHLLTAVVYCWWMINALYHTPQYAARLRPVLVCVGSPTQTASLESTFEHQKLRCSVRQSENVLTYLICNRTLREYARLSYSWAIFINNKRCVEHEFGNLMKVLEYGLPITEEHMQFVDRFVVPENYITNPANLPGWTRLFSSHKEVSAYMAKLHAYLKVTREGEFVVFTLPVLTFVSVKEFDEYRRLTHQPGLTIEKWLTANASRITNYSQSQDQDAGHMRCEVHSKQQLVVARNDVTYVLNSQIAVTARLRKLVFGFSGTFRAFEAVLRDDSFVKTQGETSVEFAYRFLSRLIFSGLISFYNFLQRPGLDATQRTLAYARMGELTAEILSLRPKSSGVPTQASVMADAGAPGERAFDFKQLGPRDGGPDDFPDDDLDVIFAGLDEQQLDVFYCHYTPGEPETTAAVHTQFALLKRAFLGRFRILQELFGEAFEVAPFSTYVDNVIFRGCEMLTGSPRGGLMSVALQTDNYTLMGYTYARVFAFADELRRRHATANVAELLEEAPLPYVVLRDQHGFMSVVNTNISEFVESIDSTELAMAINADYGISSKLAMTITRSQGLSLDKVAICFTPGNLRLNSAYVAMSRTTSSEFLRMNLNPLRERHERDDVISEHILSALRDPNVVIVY
# Sequence (P10192 whole entry, further chain): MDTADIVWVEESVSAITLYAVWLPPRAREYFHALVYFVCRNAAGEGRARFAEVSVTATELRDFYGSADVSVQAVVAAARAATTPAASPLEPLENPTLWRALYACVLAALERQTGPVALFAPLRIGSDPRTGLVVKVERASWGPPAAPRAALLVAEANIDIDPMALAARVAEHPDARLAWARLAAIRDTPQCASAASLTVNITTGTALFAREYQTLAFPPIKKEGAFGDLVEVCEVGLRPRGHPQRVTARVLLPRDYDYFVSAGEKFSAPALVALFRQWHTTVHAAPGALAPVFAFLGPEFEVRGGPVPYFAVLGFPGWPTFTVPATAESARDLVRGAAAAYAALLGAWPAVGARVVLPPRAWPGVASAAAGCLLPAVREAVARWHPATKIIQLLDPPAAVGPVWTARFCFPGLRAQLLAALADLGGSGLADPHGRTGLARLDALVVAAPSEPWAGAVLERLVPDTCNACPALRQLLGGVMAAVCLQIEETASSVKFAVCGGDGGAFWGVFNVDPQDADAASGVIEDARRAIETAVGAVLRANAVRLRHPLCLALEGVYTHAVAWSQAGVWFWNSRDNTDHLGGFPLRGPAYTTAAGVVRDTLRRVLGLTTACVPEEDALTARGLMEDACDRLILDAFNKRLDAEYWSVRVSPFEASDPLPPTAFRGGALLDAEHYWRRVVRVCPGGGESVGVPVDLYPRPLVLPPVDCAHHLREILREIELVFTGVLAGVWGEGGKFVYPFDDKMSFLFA
# Sequence (P10236 whole entry): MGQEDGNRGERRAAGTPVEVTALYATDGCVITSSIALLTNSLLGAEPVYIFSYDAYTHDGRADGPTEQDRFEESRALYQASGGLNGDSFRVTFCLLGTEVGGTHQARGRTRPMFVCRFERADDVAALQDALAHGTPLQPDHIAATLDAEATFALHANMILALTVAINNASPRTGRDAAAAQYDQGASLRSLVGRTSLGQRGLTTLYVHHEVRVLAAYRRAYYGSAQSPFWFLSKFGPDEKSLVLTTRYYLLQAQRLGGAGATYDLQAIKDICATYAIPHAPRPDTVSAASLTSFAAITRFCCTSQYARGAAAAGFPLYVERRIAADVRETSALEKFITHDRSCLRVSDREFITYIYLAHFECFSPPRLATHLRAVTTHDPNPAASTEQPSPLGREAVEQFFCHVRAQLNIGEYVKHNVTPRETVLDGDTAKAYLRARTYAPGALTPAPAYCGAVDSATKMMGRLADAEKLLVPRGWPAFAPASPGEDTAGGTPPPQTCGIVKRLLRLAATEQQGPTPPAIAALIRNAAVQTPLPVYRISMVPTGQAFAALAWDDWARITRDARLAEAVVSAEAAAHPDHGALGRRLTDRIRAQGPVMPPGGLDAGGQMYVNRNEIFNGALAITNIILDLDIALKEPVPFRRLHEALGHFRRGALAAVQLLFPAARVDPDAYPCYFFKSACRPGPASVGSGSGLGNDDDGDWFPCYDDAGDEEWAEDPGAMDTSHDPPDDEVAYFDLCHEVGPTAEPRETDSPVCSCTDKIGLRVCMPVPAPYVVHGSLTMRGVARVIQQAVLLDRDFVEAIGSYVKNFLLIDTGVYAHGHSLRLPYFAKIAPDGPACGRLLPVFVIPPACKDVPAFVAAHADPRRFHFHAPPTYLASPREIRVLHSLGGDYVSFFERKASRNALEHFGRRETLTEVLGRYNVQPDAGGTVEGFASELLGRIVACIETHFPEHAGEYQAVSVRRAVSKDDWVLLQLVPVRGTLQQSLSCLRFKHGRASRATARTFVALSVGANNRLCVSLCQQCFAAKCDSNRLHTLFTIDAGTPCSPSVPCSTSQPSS
# method_summary: Inhibition of NTP polymerization onto primer:templates
# Format: biochemical
# condition_context: inhibition of ATP polymerization, 800 μM ATP, DNAT
measure: IC50

{"compound": "Nc1ncnc2c1ncn2[C@@H]1O[C@H](COP(=O)(O)OP(=O)(O)OP(=O)(O)O)C[C@H]1O [3′-dATP, cordycepin triphosphate]", "assayed_target": "primase (UL5/UL8/UL52) (Human herpesvirus 1, UniProt P10236)", "observed_value": "1100 µM"}

====

# assayed_target: primase (UL5/UL8/UL52) (Human herpesvirus 1)
# method_summary: Inhibition of NTP polymerization onto primer:templates
# Assay type: biochemical
# condition_context: inhibition of GTP polymerization, GTP (100 μM), DNAC
pIC50: −log10 of the molar value.

{"compound_string": "Nc1nc2c(ncn2[C@@H]2O[C@H](COP(=O)(O)O)[C@@H](O)[C@H]2O)c(=O)[nH]1", "pIC50": 2.42}
{"compound_string": "Nc1nc2c(ncn2[C@@H]2O[C@H](COP(=O)(O)OP(=O)(O)O)[C@@H](O)[C@H]2O)c(=O)[nH]1", "pIC50": 2.36}
